- Study Target: T1, recombinant purified human IL-12 p70 (human, UniProt P29459 23-219)
- T1 construct: Disulfide-linked heterodimer of p35 and p40; also called hIL-12; Hu IL-12
- T1 sequence 1: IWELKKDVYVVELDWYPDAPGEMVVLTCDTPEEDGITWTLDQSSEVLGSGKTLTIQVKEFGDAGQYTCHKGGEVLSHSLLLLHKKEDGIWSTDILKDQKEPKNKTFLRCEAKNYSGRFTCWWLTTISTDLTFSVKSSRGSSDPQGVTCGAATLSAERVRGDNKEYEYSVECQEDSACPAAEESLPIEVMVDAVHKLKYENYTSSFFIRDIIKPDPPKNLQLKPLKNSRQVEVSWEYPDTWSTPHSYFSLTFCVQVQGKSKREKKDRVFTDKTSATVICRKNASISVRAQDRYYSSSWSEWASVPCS
- T1 sequence 2: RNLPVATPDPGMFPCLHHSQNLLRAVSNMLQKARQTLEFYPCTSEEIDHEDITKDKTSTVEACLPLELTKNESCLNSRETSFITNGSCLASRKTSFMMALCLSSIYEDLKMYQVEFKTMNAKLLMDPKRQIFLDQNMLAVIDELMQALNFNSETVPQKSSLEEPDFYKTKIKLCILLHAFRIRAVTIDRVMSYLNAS
- Test Description: SPR (BIAcore) as in Example 1.1.B, human IL-12p70
Would you mind telling me the reported kon of each entry?
Report the value in M⁻¹ s⁻¹ with no unit label.

Need kon of anti-IL-12p40 humanized antibody 1A6.9 (antibody, human IgG1, kappa, L234A L235A, V domains shown, Back-mutated CDR-grafted antibody; COS cells) VH: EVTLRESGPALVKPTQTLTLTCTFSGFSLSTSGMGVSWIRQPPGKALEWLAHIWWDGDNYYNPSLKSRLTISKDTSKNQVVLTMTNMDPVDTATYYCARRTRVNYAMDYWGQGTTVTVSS VL: SVVMTQSPDSLAVSLGERATINCKASQSVSNDVAWFQQKPGQPPKLLIYYASNRYTGVPDRFSGSGYGTDFTLTISSLQAEDVAVYYCQQDYNSPWTFGGGTKVEIKR , thanks. 350000

Need kon of anti-IL-12p40 humanized antibody 1D4.6 (antibody, human IgG1, kappa, L234A L235A, V domains shown, COS cells) VH: EVTLRESGPALVKPTQTLTLTCTFSGFSLSKSVMGVSWIRQPPGKALEWLAHIYWDDDKYYNPSLKSRLTISKDTSKNQVVLTMTNMDPVDTATYYCTRRGIRSAMDYWGQGTTVTVSS VL: DVVMTQSPDSLAVSLGERATINCKASQSVSNDVAWYQQKPGQPPKLLIYYASNRYTGVPDRFSGSGYGTDFTLTISSLQAEDVAVYYCQQDYNSPWTFGGGTKVEIKR , thanks. 480000

The measurements presented in this section are drawn from patent US20140178332A1.
